biological target: mPTPA (Mycobacterium tuberculosis, UniProt P9WIA1)
Sequence (P9WIA1 whole entry): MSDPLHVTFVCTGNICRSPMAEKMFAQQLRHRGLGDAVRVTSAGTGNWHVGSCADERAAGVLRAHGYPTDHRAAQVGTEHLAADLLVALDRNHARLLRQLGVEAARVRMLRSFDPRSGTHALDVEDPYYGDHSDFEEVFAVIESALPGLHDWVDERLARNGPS
OBSERVED_PROPERTY: Ki (nM)

compound=Cc1c(Br)cc(NC(=O)CS(=O)(=O)O)cc1Br observed_property=Ki value_measured=56
compound="O=C(Nc1ccc(N2CCOCC2)cc1)C(c1ccccc1)S(=O)(=O)O (centres unmarked)" observed_property=Ki value_measured=130

---

Known IC50 of a selection of molecules
molecular target: mPTPA (Mycobacterium tuberculosis); test: biochemical; details: IC50 mPTPA
OBSERVED_PROPERTY: IC50

molecule="O=C(Nc1cnc2ccccc2c1)C(c1ccccc1)S(=O)(=O)O (stereo not drawn)" observed_property=IC50 value_measured="143 nM"
molecule="O=C(C(c1ccccc1)S(=O)(=O)O)N1CCC(Cc2ccccc2)CC1 (stereo not drawn)" observed_property=IC50 value_measured="> 200000 nM"
molecule="O=C(Nc1cccc(OCc2ccccc2)c1)C(c1ccccc1)S(=O)(=O)O (stereo not drawn)" observed_property=IC50 value_measured="560 nM"
